System: DENV-4 strain H241
TEST_SUMMARY: Tetravalent RT-qPCR assay, serotype 4
Type: cell-based, Dengue virus
MEASUREMENT_CONTEXT: Dengue virus, DENV4, Vero, RT-qPCR serotype 4 H241, Vero cells
Method: The antiviral activity of the compounds of the invention was tested against DENV-1 strain TC974#666 (NCPV), DENV-2 strain 16681, DENV-3 strain H87 (NCPV) and DENV-4 strain H241 (NCPV) in a RT-qPCR assay. Therefore, Vero cells were infected with either DENV-1, or -2, or -3, or -4 in the presence or absence of test compounds. […] In addition, CC50 values are determined based on the Cp values acquired for the housekeeping gene β-actin. […]
EC50 for assorted compounds
QUANTITY_KIND: EC50 (nM)

{"COMPOUND": "COc1cc(NC(C(=O)N2CCc3ccc(OC(F)(F)F)cc32)c2ccc(Cl)cc2OC)cc(OCCC(C)(C)C(=O)O)c1 (single isomer, unassigned) [Compound 18B]", "QUANTITY_KIND": "EC50", "OBSERVED_VALUE": 33}
{"COMPOUND": "COc1cc(CCCC(=O)O)cc(NC(C(=O)N2CCc3ccc(OC(F)(F)F)cc32)c2ccc(Cl)cc2)c1 (single isomer, unassigned) [Compound 15B]", "QUANTITY_KIND": "EC50", "OBSERVED_VALUE": 35}
{"COMPOUND": "COc1cc(NC(C(=O)N2CCc3ccc(OC(F)(F)F)cc32)c2ccc(Cl)cc2)cc(OC23CC(C(=O)O)(C2)C3)c1 (single isomer, unassigned)", "QUANTITY_KIND": "EC50", "OBSERVED_VALUE": 36}
{"COMPOUND": "COc1cc(NC(C(=O)N2CCc3ccc(OC(F)(F)F)cc32)c2ccc(Cl)cc2)cc(OCC2(CC(=O)O)CC2)c1 (single isomer, unassigned)", "QUANTITY_KIND": "EC50", "OBSERVED_VALUE": 58}
{"COMPOUND": "COc1cc(NC(C(=O)N2CCc3ccc(OC(F)(F)F)cc32)c2ccc(Cl)cc2)cc(OCCC(C)(C)C(=O)O)c1 (single isomer, unassigned)", "QUANTITY_KIND": "EC50", "OBSERVED_VALUE": 27}
{"COMPOUND": "COc1cc(NC(C(=O)N2CCc3cc(F)c(OC(F)(F)F)cc32)c2ccc(Cl)cc2)cc(OCC2CC(C(=O)O)C2)c1 (centres unmarked) [Compound 30A]", "QUANTITY_KIND": "EC50", "OBSERVED_VALUE": 18}
{"COMPOUND": "COc1cc(NC(C(=O)N2CCc3ccc(OC(F)(F)F)cc32)c2ccc(Cl)cc2)cc(OCC2CC(C(=O)O)C2)c1 (centres unmarked) [Compound 10B]", "QUANTITY_KIND": "EC50", "OBSERVED_VALUE": 22}
{"COMPOUND": "COc1cc(NC(C(=O)N2CCc3cc(OC)c(C(F)(F)F)cc32)c2ccc(Cl)cc2)cc(OCCC(C)(C)C(=O)O)c1 (single isomer, unassigned) [Compound 21B]", "QUANTITY_KIND": "EC50", "OBSERVED_VALUE": 48}
{"COMPOUND": "COc1cc(NC(C(=O)N2CCc3cc(F)c(OC(F)(F)F)cc32)c2ccc(Cl)cc2)cc(OC2CC(C(=O)O)C2)c1 (single isomer, unassigned) [Compound 27B]", "QUANTITY_KIND": "EC50", "OBSERVED_VALUE": 0.81}
{"COMPOUND": "COc1cc(NC(C(=O)N2CCc3ccc(OC(F)(F)F)cc32)c2ccc(Cl)cc2OC)cc(OCCC(C)C(=O)O)c1 (single isomer, unassigned) [Compound 17C]", "QUANTITY_KIND": "EC50", "OBSERVED_VALUE": 16}
{"COMPOUND": "COc1cc(CCCCC(=O)O)cc(NC(C(=O)N2CCc3ccc(OC(F)(F)F)cc32)c2ccc(Cl)cc2)c1 (single isomer, unassigned) [Compound 14A]", "QUANTITY_KIND": "EC50", "OBSERVED_VALUE": 15}
